- method_summary: reducers of endogenous Her2 protein level, primary screen, SKBR3 breast tumor cells, AlphaScreen, ATP viability (AID 461);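 note: percent of carrier control wells set as 100% viability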
- condition_set: 18-24 h, measured here: SKBR3 viability, ATP luminescence, at 10 µM
measurement_type: viability (%)
Answer format: numeric, % implied, no suffix.

Provide viability value for the following molecule: COc1ccc(S(=O)(=O)N2CCCC2C(=O)Nc2ccc(C)cc2)cc1 (configuration not stated)
88

Provide viability value for the following molecule: O=C1CCCC2=C1C1(CCCC1)N=C(Nc1nc3ccccc3s1)N2
99.5

Provide viability value for the following molecule: CC1(C)CC(=O)C=C(Nc2ccc(F)cc2)C1
102

Provide viability value for the following molecule: C=CCOc1nc2c(c(=O)n(C)c(=O)n2C)n1C
96.5

Provide viability value for the following molecule: COc1ccc(-n2c(SCC(=O)c3c(N)n(C)c(=O)n(C)c3=O)nc3ccccc32)cc1
105

Provide viability value for the following molecule: COC(=O)c1sccc1NC(=O)c1csc(C)c1
87

Provide viability value for the following molecule: Cc1occc1C(=O)Nc1ccccc1NC(=O)c1ccoc1C
96.5

Provide viability value for the following molecule: CN(Cc1cccs1)CC(O)COCc1ccco1 (configuration not stated)
107

Provide viability value for the following molecule: Nc1nnnn1/N=C/c1ccccc1OCc1ccccc1
118

Provide viability value for the following molecule: O=C1CCc2cc(S(=O)(=O)N3CCC(C(=O)NCc4ccccn4)CC3)ccc2N1
81

Provide viability value for the following molecule: O=S(=O)(Nc1cccc2ncccc12)c1cccs1
256

Provide viability value for the following molecule: Cc1nc2ncnn2c(N2CCC(C(=O)NC3CCCC3)CC2)c1Cc1ccccc1
88

----------
- method_summary: reducers of endogenous Her2 protein level, primary screen, SKBR3 breast tumor cells, AlphaScreen, ATP viability (AID 461);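 note: percent of carrier control wells set as 100% viability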
- condition_set: 18-24 h, measured here: SKBR3 viability, ATP luminescence, at 10 µM
measurement_type: viability (%)
Answer format: numeric, % implied, no suffix.

Provide viability value for the following compound: Cc1c(C(=O)NCCC2=CCCCC2)oc2ccc(S(=O)(=O)N3CCC4(CC3)OCCO4)cc12
94.5

Provide viability value for the following compound: OC(CCN1CCOCC1)(c1ccc(Cl)cc1)C1CCCCC1 (stereo unspecified)
82.5

Provide viability value for the following compound: CCOc1ccc(N(CC)C(=O)COc2cc(=O)n(C)c3ccccc23)cc1
84.5

Provide viability value for the following compound: C=CCOc1ccc(/C(O)=C2\C(=O)C(=O)N(CCOC)C2c2cccnc2)cc1 (stereo unspecified)
99

Provide viability value for the following compound: O=C(c1cccc(C(=O)N2CCN(c3ccccc3)CC2)c1)N1CCN(c2ccccc2)CC1
95.5

Provide viability value for the following compound: CCCCc1n[nH]c2c1C(=O)CC(C)(C)C2
73.5

Provide viability value for the following compound: CCOC(=O)c1[nH]c2ccc(Br)cc2c1NC(=O)CNC
93

Provide viability value for the following compound: COc1ccc(-c2cc(C(F)(F)F)n3nc(C(=O)N4CCOCC4)nc3n2)cc1
88

Provide viability value for the following compound: COCCCNS(=O)(=O)c1ccc2c(c1)CCN2C(C)=O
97

Provide viability value for the following compound: CC(=O)N(c1ccc(N(C(C)=O)S(=O)(=O)c2cccs2)cc1)S(=O)(=O)c1cccs1
90

Provide viability value for the following compound: CCOc1ccc(C2CC(c3cccc(C)c3)n3ncnc3N2)cc1 (stereo unspecified)
101
